Format: in vivo
condition: male, C57BL/6N, mouse, heart, oral, 3 g/l, Concentration in heart, drink at 3 g/l
experimental-endpoint: concentration at 1 week (ng/g)
Could you give me the number in ng/g? Just the number is fine.

Prompt: Requested field: concentration at 1 week. Item: COc1cccc(CN)c1O [3-MoSA, 3-methoxy-2-hydroxybenzylamine]
Response: 23900

* * *

Format: in vivo
condition: male, C57BL/6N, mouse, heart, oral, 5 g/l, Concentration in heart, drink at 5 g/l
experimental-endpoint: concentration at 1 week (ng/g)
Could you give me the number in ng/g? Just the number is fine.

Prompt: Requested field: concentration at 1 week. Item: COc1cccc(CN)c1O [3-MoSA, 3-methoxy-2-hydroxybenzylamine]
Response: 46300

Value source: paper PMC3091354
